System: HT-29
Experiment: Antiproliferative activity against human HT-29 cells assessed as inhibition of cell proliferation measured after 48 hrs by MTT assay
Format: functional, cell-based
Details: HT-29, 48 h
Could you please mark Y for values of IC50 below 6 µM and N for values at or above it?

Ask | hey, is IC50 for COc1cc(-c2cc(-c3ccc(O)cc3)nc(-c3ccccc3)n2)cc(OC)c1OC lower than 6 µM or not?
Reply | N

Ask | hey, is IC50 for COc1cc2c(c(OC)c1OC)-c1ccc(OC)c(=O)cc1[C@@H](NC(C)=O)CC2 [COLCHICINE] lower than 6 µM or not?
Reply | Y

Ask | hey, is IC50 for COc1cc(-c2cc(-c3ccc(Br)cc3)nc(-c3ccccc3)n2)cc(OC)c1OC lower than 6 µM or not?
Reply | Y

Ask | hey, is IC50 for COc1ccc(-c2cc(-c3cc(OC)c(OC)c(OC)c3)nc(-c3ccccc3)n2)cc1 lower than 6 µM or not?
Reply | Y

Ask | hey, is IC50 for COc1cc(-c2cc(-c3ccc(N)cc3)nc(-c3ccccc3)n2)cc(OC)c1OC lower than 6 µM or not?
Reply | N

Ask | hey, is IC50 for COc1cc(-c2cc(-c3cccc([N+](=O)[O-])c3)nc(-c3ccccc3)n2)cc(OC)c1OC lower than 6 µM or not?
Reply | N

Ask | hey, is IC50 for COc1cc(-c2cc(-c3ccccc3)nc(-c3ccccc3)n2)cc(OC)c1OC lower than 6 µM or not?
Reply | N

Ask | hey, is IC50 for COc1cc(-c2cc(-c3cccc(O)c3)nc(-c3ccccc3)n2)cc(OC)c1OC lower than 6 µM or not?
Reply | N

Ask | hey, is IC50 for COc1cc(-c2cc(-c3ccc(Cl)cc3)nc(-c3ccccc3)n2)cc(OC)c1OC lower than 6 µM or not?
Reply | N

###

Tested on: HCT-116
Test: Antiproliferative activity against human HCT-116 cells assessed as inhibition of cell proliferation measured after 48 hrs by MTT assay
Type: functional, cell-based
Settings: HCT-116, 48 h
pIC50: −log10 of the molar value.
Values of pIC50 greater than or equal to 5 map to true (1); values below map to false (0).

Ask | Tell me whether pIC50 is at least 5 here: COc1cc(-c2cc(-c3ccc(Br)cc3)nc(-c3ccccc3)n2)cc(OC)c1OC
Reply | true (1)

Ask | Tell me whether pIC50 is at least 5 here: COc1cc(-c2cc(-c3cccc4ccccc34)nc(-c3ccccc3)n2)cc(OC)c1OC
Reply | true (1)

Ask | Tell me whether pIC50 is at least 5 here: COc1cc(-c2cc(-c3cccs3)nc(-c3ccccc3)n2)cc(OC)c1OC
Reply | false (0)

Ask | Tell me whether pIC50 is at least 5 here: COc1cc2c(c(OC)c1OC)-c1ccc(OC)c(=O)cc1[C@@H](NC(C)=O)CC2
Reply | true (1)

Ask | Tell me whether pIC50 is at least 5 here: COc1cc(-c2cc(-c3ccc(O)cc3O)nc(-c3ccccc3)n2)cc(OC)c1OC
Reply | true (1)

Ask | Tell me whether pIC50 is at least 5 here: COc1ccc(-c2cc(-c3cc(OC)c(OC)c(OC)c3)nc(-c3ccccc3)n2)c(OC)c1
Reply | false (0)

Ask | Tell me whether pIC50 is at least 5 here: COc1cc(-c2cc(-c3cccc([N+](=O)[O-])c3)nc(-c3ccccc3)n2)cc(OC)c1OC
Reply | false (0)

Ask | Tell me whether pIC50 is at least 5 here: COc1cc(-c2cc(-c3cccc(O)c3)nc(-c3ccccc3)n2)cc(OC)c1OC
Reply | false (0)
